- Tested on: MS2 coat protein
- measurement description: apparent KD of MS2 coat protein, switch ON state; designed switch direction (-1 OFF switch, 1 ON switch): -1; higher = weaker reporter binding
- recorded conditions: FMN input: 0 or 200 uM; Eterna round: R93 (includes R88 designs)
value type: apparent KD of MS2 coat protein (µM)
Your answer is read as µM, so omit the unit and give the number.

monomer sequence	measured target	quantity unit	assay result
AAGAACGCAGGAUAUAUUAAGGGACAAAGAAGGAAGAAUAAACAUGAGGAUCACCCAUGUAGAAGGGCGAAGAA [JR_Exclusion2_Sub4]	MS2 coat protein	µM	0.0494
UCGAUGCGAGGAUAUACUAAGGCAACUACUGCAGCUCAAAAACAUGAGGAUCACCCAUGUAGAAGGCGCAUAUA [JR_Exc002_Sub304]	MS2 coat protein	µM	0.0196
UACAUACAUGAGGAUCACCCAUGUCAGGAUAUGUGCUCAGUGAAAAACAAAGAAACAAGCAGAAGGGACACUAA [JR_Exc001_Sub203]	MS2 coat protein	µM	0.0418
AAGAAGCGAGGAUAUACAUGAGGAUCACCCAUGUAAAAGAAAGAGGGAAAAGAGAAAAGUAGAAGGCGCAAGAA [Philip III Arrhidaeus]	MS2 coat protein	µM	0.0842
AAGGUACGAGGAUAUACAUAGAUACAGACACAUGUACAUGUACAUGAGGAUCACCCAUGUAGAAGGCGUAUAUA [AJ 19]	MS2 coat protein	µM	0.0861

Q: Item under review: AAAAGGUCAGGAUAUGCCCACCUGGUGGAAAAACCAGGUGGGCAGAAGGGACAUGAGGAUCACCCAUGUAAAAA [Excls4-Ii] . Reported apparent KD of MS2 coat protein?
Ans: 0.0531

Q: And what about the sequence AGCUAGUCAGGAUAUACGAAAAUGUCAGAAGCUGUGAAGGGACAUGAGGAUCACCCAUGUAGAAGGGACUAGCA [Diamond 38] ?
Ans: 0.0691

====

# apparent KD of K4 kissing-loop reporter values compiled below
- System: K4 kissing-loop RNA reporter;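 note: bound reporter read as fluorescence of individual clusters on recovered sequencing chips by microscopy, with normalized cluster intensities fitted with a binding model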
- measurement description: apparent KD of K4 kissing-loop reporter; higher = weaker reporter binding
- recorded conditions: Eterna round: R107; input ligand: tryptophan 2.4 mM
Your answer is read as nM, so omit the unit and give the number.

Some sequences with recorded apparent KD of K4 kissing-loop reporter:
monomer sequence	measured target	value type	assay result
UACUAUAGUGAUGUUAUAGAUAAACCAGAUACCAGUGUAACAUAACACCCUUGGCAGCUGAUGAGGGAACAUAUGAAUGCAUAUG [AstrosSSTHe-A#5newdesignED5.11]	K4 kissing-loop RNA reporter	apparent KD of K4 kissing-loop reporter	163
GGUGCUGUCUGUGCCGCCCUCCUCGUCCCUCGAGGACCGGUACGGCCGCCACUCGAGUGAUGUUCGGGUAGCCAUCCCUGCUAGC [Bdazzled - #19 Exc. Tryptophan A]	K4 kissing-loop RNA reporter	apparent KD of K4 kissing-loop reporter	937
AAUAUCUAGUAUAUUUUUAAUAAAACAGAUACCAGUGAUAAUAGACACCCUUGGCAGCUGGUCGAGUGAUGUUCGUUUAUAUUAA [JR_SSTheophyA_Sub006]	K4 kissing-loop RNA reporter	apparent KD of K4 kissing-loop reporter	57.3
UUUUUCCCGCAGGAUACCAGCAACCAAACGUCAUGCGAAGUGAUGUUUCGCUUACGGUAGUGCCCUUGGCAGCCUUCGGUAGGGU [thingy]	K4 kissing-loop RNA reporter	apparent KD of K4 kissing-loop reporter	161
AAUAUGAAGCAGUGAUGUUGCUUAUGAGAAGGAGCGCACGAAAGUGCAGGUAGGUCGCUCAGCCAAGUGGACGAAAACGUCCACA [whbob_SS_Arginine_A_sa107]	K4 kissing-loop RNA reporter	apparent KD of K4 kissing-loop reporter	91

With those in mind, consider the next sequence.
Q: Item under review: GUCUUACUAUAGGAUACCAGCAUGCAAGGAGUGAUGUUCCCGUCAUAUGAGGAGUACCGCUGCCCUUGGCAGCCUCUUGUAAGUU [theeternabot_sameState_KL_Theo_B_1] . Reported apparent KD of K4 kissing-loop reporter?
Ans: 316

====

- Test system: MS2 coat protein
- measurement description: apparent KD of MS2 coat protein; designed switch direction (-1 OFF switch, 1 ON switch): 1; higher = weaker reporter binding
- recorded conditions: input ligand: microRNA oligo, concentration not stated
# apparent KD of MS2 coat protein values compiled below
Your answer is read as nM, so omit the unit and give the number.

monomer sequence	apparent KD of MS2 coat protein / nM
AUGAAUUUGCGAGGAUAUCGUUUGUUGAAGUUACGAGAAGGCGCUCACUUUACAUGAGGAUCACCCAUGUUUAUGUUUUAUGAU [JR_SSNG1_Sub075] (Eterna round: R96, puzzle: Same State NG 1)	21.6

With those in mind, consider the next sequence.
Q: Item under review: GCUAGAAUUAAAGCCAACAUGAGGAUCACCCAUGUAUGUUGGCAGGAUAUCGUUUGCAAAGCAAACGAGAAGGGCCAAACUAGC [Mat - Same State NG 3 - JL Mod - D2] (Eterna round: R96, puzzle: Same State NG 3) . Reported apparent KD of MS2 coat protein?
Ans: 94.1

====

- Tested on: MS2 coat protein
- measurement description: apparent KD of MS2 coat protein; designed switch direction (-1 OFF switch, 1 ON switch): -1; higher = weaker reporter binding
- recorded conditions: Eterna round: R95; input ligand: microRNA oligo, concentration not stated
Give met when the value for apparent KD of MS2 coat protein is at least 20 nM. Give not met when it is less.

// below: answered sequences
monomer sequence	group label
CCGAAUAAGCAGGAUAUCGAAUCGGAAACGAUUCGAGAAGGGUUAACAUGAGGAUCACCCAUGUUCCUUAACGG [Mat - Exclusion 6 - Eli Mod - D78] (puzzle: Exclusion 6)	not met
CUUCGUUGUAAGGAUAUCCAGACUCUUCCUGUCGGAGAAGGUACAACAUGAGGAUCACCCAUGUUGCUACAUGG [Zaaqu] (puzzle: Exclusion 6)	met
UCAUGUUUAGAGGAUAUGAUUACUCUAGAGUGAUCAGAAGGCUAGACAUGAGGAUCACCCAUGUCACAACAUGA [Exclusion 6 - B - 16:c] (puzzle: Exclusion 6)	met
CCGGAAAAGGAGGAUAUAGGAGUCGAUAGACACCUAGAAGGUCUGACAUGAGGAUCACCCAUGUGUCCUACCGG [Fiskers Ex 6 - 89] (puzzle: Exclusion 6)	met

Now examine the next entry.
Q: Hi team, for AGACAGUGAGGAUAUGCAGUCGGUGUCACCUGAUGAGAAGAACAUGAGGAUCACCCAUGUAGAAGGCACAGGAA [Tearrice] (puzzle: Exclusion 2) , is the recorded apparent KD of MS2 coat protein at or above 20 nM?
Ans: met

====

- Test system: MS2 coat protein
- measurement description: apparent KD of MS2 coat protein; designed switch direction (-1 OFF switch, 1 ON switch): -1; higher = weaker reporter binding
- recorded conditions: input ligand: microRNA oligo, concentration not stated
# apparent KD of MS2 coat protein values compiled below
Your answer is read as nM, so omit the unit and give the number.

Some sequences with recorded apparent KD of MS2 coat protein:
monomer sequence	measured target	assay result
UAUAUAUAGUAAGGAUAUGUAUAUAUUUGAUAAACAGAAGGUACUGACAUGAGGAUCACCCAUGUUUUAGUGUGGGCAUGUAGA [JMF's solution 64] (Eterna round: R96, puzzle: Exclusion NG 1)	MS2 coat protein	48.4
AAAUAUCAUGUAGGAUAUGGAAGGCGAACCUAUCCAGAAGGACAUGAGGAUCACCCAUGUGCUGCGUUGUCCGUAGACAGCGCU [Ex NG1 #2] (Eterna round: R96, puzzle: Exclusion NG 1)	MS2 coat protein	21.1
CAUGAUUGGCGAGGAUAUUGAUCUACAUGGCGACGAGAAGGCGCCUGUCACAUGAGGAUCACCCAUGUGAGUCUGGUGAAUGAG [Ex NG1 #85] (Eterna round: R96, puzzle: Exclusion NG 1)	MS2 coat protein	25
UUGAACCCGGUAGGAUAUAUUGUGGGCAAACAUGGAACAACAUGAGGAUCACCCAUGUAAUUUAGGUAGAAGGGCCAAAAGAUU [Excl-NG2-LRO06] (Eterna round: R96, puzzle: Exclusion NG 2)	MS2 coat protein	61

Q: Item under review: AGCUAGUCAGGAUAUACGAACACCUCAAAAGAGGUGAAGGGACAUGAGGAUCACCCAUGUAGAAGGGACUAGCA [Mat - Exclusion 2 - JL mod - D29] (Eterna round: R96, puzzle: Exclusion 2) . Reported apparent KD of MS2 coat protein?
Ans: 21.3

====

- Test system: MS2 coat protein
- measurement description: apparent KD of MS2 coat protein; designed switch direction (-1 OFF switch, 1 ON switch): -1; higher = weaker reporter binding
- recorded conditions: input ligand: microRNA oligo, concentration not stated
value type: apparent KD of MS2 coat protein (nM)
Your answer is read as nM, so omit the unit and give the number.

Q: Item under review: AAGAAGAAGUAAGGAUAUGAAGAUCUGGUGGUGACAUGAGGAUCACCCAUGUGAAAACGAUAAGAUCAGAAGGUAUAAGAAGAA [AK ExNG2-3.2] (Eterna round: R96, puzzle: Exclusion NG 2) . Reported apparent KD of MS2 coat protein?
Ans: 48.4

Q: And what about the sequence AGAGAAUACUCAGGAUAUCGGAAUAGAAAGAGACGAGAAGGGAGACAUGAGGAUCACCCAUGUGAAGUCUUGAGGCUGCAUGGA [Prohibition 26 - Jieux - Exclusion NG 1] (Eterna round: R96, puzzle: Exclusion NG 1) ?
Ans: 122
